Hey, just so you know, these numbers are from PubChem BioAssay (NCI).

# Tested on: T-47D breast
# measurementProtocol: NCI-60 one-dose screen, 48 h
# conditions: 10 µM unless noted
The panel holds about 83,000 compounds, 20% with a hit somewhere; the sample as a whole holds those more often. Active and inactive are the calls of the source. Rule for the calls: active = growth percent below 10; inactive = the rest.
Classes used: true = active, false = inactive

molecule: O=C1OC(=O)C2C1CC=CC2c1ccccc1 (centres undefined)
assignedLabel: false
--
molecule: CC(N)C(=O)NNc1n[nH]c(=S)n1N (centres undefined)
assignedLabel: false
--
molecule: COc1ccc(Cn2nc3c(c2-c2cc(OC)c(OC)c(OC)c2)-c2oncc2CC3)cc1
assignedLabel: false
--
molecule: Fc1ccc2nc3c(cc2c1)CSc1nnc(-c2ccc[nH]c2=S)n1N3
assignedLabel: false
--
molecule: COc1cccc(/C=C2\COc3ccc(-c4ccccc4)cc3C2=O)c1
assignedLabel: true
--
molecule: FCc1nc2nc(Cl)c(Cl)nc2[nH]1
assignedLabel: false
--
molecule: COc1ccc2c(c1)c(CC(=O)NCCOCCOCC(=O)Nc1ccc(OC)c(C(N)=O)c1O)c(C)n2C(=O)c1ccc(Cl)cc1
assignedLabel: false
--
molecule: O=C(Nc1nc2ccc(S(=O)(=O)Nc3ccc(C4(C(F)(F)F)CC4)cc3)cc2[nH]1)c1cnccn1
assignedLabel: false
--
molecule: COc1cc2c(cc1[N+](=O)[O-])-c1ccc([N+](=O)[O-])cc1/C2=N/NC(N)=S
assignedLabel: false
--
molecule: O=C1CCCCCCCCC(O)C(O)CCCC(c2cccs2)O1 (centres undefined)
assignedLabel: false
--
molecule: Clc1ccc(N2N=C(c3cccc(Nc4ccncc4)c3)CC2c2ccc3c(c2)OCO3)cc1 (centres undefined)
assignedLabel: false
--
molecule: CC(=O)O[C@H]1CC[C@@]2(C)[C@@H](CC[C@@H]3[C@@H]2CC[C@@]2(C)[C@H]3CC[C@]2(O)C(C)=O)C1
assignedLabel: false
--
molecule: COc1cccc(NC(=O)c2cccc(-c3cc(=O)c4c(OC)c(OC)c(OC)cc4o3)c2)c1
assignedLabel: false
--
molecule: Nc1c(C(=O)Nc2ccc(Cl)cc2)cc(-c2nc3ccccc3s2)c(=O)n1NS(=O)(=O)c1ccc(Cl)cc1
assignedLabel: false
--
molecule: C=C1C(=O)O[C@H]2[C@H]1CC/C(COC(=O)CCCCCC(=O)OC/C1=C/CC[C@@]3(C)O[C@H]3[C@H]3OC(=O)C(=C)[C@@H]3CC1)=C\CC[C@@]1(C)O[C@@H]21
assignedLabel: true
--
molecule: CCn1cc(C2NC(=O)c3ccccc3N2)c2cccc(C)c21 (centres undefined)
assignedLabel: false
--
molecule: COc1cc2nnn3c4ncccc4c(N=O)c3c2cc1OC
assignedLabel: false
--
molecule: Clc1cc(Cl)cc(N2N=C(c3cccc(Nc4ccncc4)c3)CC2c2ccc(Br)cc2)c1 (centres undefined)
assignedLabel: false
--
molecule: CC(=O)N1N=C(c2cccc(Nc3ccncc3)c2)CC1c1ccc2c(c1)OCO2 (centres undefined)
assignedLabel: false
